Can you tell me GI50 for the items I'm about to list?
- Tested on: SK-MEL-28 melanoma
- EXPERIMENT: NCI tumour cell line growth inhibition, 48 h

Take a look at these entries with their results.
{"COMPOUND": "CCNC(=O)[C@@H]1CCCN2C(=O)CC[C@H](NC(=O)[C@H](Cc3ccc(OP(=O)(O)O)cc3)NC(C)=O)C(=O)N12", "GI50": "> 25 µM"}
{"COMPOUND": "COc1ccc(-c2cc(-c3cc(Cl)ccc3Cl)nc3n[nH]c(N)c23)cc1", "GI50": "26 µM"}
{"COMPOUND": "O=C1C(Cl)=C(Nc2cccc(Cl)c2)C(=O)N1Cc1ccccc1", "GI50": "19.5 µM"}
{"COMPOUND": "CCOC(=O)c1c2c(c(O)c3ccccc3c(O)n(Cc3ccc(OC)cc3)c1C)C(=O)C=CC2=O", "GI50": "> 100 µM"}
{"COMPOUND": "CC1(C)N=C(N)N=C(N)N1c1cccc(CCCCc2cccc(S(=O)(=O)F)c2)c1", "GI50": "4.1 µM"}
{"COMPOUND": "COc1cc(NS(C)(=O)=O)ccc1Nc1c2ccc([N+](=O)[O-])cc2nc2c(C)cccc12", "GI50": "2.73 µM"}

Below are 3 compounds. Give each one its GI50.
1. COc1cc2c3c(n(CCCN)c(=O)c2cc1OC)-c1ccccc1C3=O
2. Clc1ccc(CSC(Cn2ccnc2)c2ccc(Cl)cc2Cl)cc1 (stereo not given)
3. FC(F)(F)Oc1cccc(-c2cnc3ccc(-c4ccncc4)nn23)c1

Result:
1. 9.99 µM
2. 1.69 µM
3. 2.53 µM

Ask: I'd like to know its GI50. The compound in question is O=C(NC1CCN(Cc2ccccc2)CC1)c1cc(-c2ccncc2)nc2ccc(Cl)cc12
Result: 10.5 µM
